Ref: BindingDB's records for patent US20250074895

READOUT_KIND: IC50

Query: API: value(readout=IC50, system=Cyclin-dependent kinase/G2/mitotic-specific cyclin- 1 (Homo sapiens)) for record CC1(NC(=O)O[C@@H]2CC[C@H](c3cc(Nc4cnc(C(F)F)cn4)n[nH]3)C2)CC1 [US20250074895, Compound 36]
Reply: < 100 nM

Query: API: value(readout=IC50, system=Cyclin-dependent kinase/G2/mitotic-specific cyclin- 1 (Homo sapiens)) for record CC1(NC(=O)O[C@@H]2CC[C@H](c3cc(Nc4nccnn4)n[nH]3)C2)CC1 [US20250074895, Compound 42]
Reply: > 500 nM

Query: API: value(readout=IC50, system=Cyclin-dependent kinase/G2/mitotic-specific cyclin- 1 (Homo sapiens)) for record CC1(NC(=O)O[C@@H]2CC[C@H](c3cc(Nc4cnc(F)cn4)n[nH]3)C2)CC1 [US20250074895, Compound 31]
Reply: < 100 nM
